# measured target: T1, APC9182-AA
# T1 chain: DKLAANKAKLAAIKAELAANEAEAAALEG
# assay overview: two-hybrid library CCmax;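 further: natural log of median RNA to DNA barcode read ratio; higher means stronger binding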
# assay setup: mean of both orientations
recorded endpoint: interaction score

Given DELAAIEAKNAALKAENAALEAEAAALEG [APC542-AA] , state its recorded interaction score. -1.84

Given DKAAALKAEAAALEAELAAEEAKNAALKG [APC3265-AA] , state its recorded interaction score. -1.78

Given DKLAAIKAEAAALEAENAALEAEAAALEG [APC1242-AA] , state its recorded interaction score. -1.34

Given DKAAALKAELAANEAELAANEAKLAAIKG [APC3881-AA] , state its recorded interaction score. -1.63

Given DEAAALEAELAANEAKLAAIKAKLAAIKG [APC2811-AA] , state its recorded interaction score. -1.35

Given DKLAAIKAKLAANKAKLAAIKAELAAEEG [APC1916-AA] , state its recorded interaction score. -1.82
